- Test system: HeLa Kyoto;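 further: synchronized HeLa Kyoto cells, proteins quantified by TMT10plex mass spectrometry, three biological replicates, mitosis taken 0.5 h after nocodazole release, G1/S directly after double thymidine block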
- RUN_DESCRIPTION: thermal stability score vs G1/S (z-score of summed log2 fold changes over temperatures); higher = more thermally stable than in G1/S
- TEST_PARAMETERS: cell cycle stage: early G1 (4.5 h after nocodazole release)
OUTCOME_MEASURE: thermal stability score
Answer with a number only.

Query block: Which thermal stability score value is on record for MAEPLQPDPGAAEDAAAQAVETPGWKAPEDAGPQPGSYEIRHYGPAKWVSTSVESMDWDSAIQTGFTKLNSYIQGKNEKEMKIKMTAPVTSYVEPGSGPFSESTITISLYIPSEQQFDPPRPLESDVFIEDRAEMTVFVRSFDGFSSAQKNQEQLLTLASILREDGKVFDEKVYYTAGYNSPVKLLNRNNEVWLIQKNEPTKENE [HEBP2] ?
Result block: 0.153

Query block: # iterate: MESGFTSKDTYLSHFNPRDYLEKYYKFGSRHSAESQILKHLLKNLFKIFCLDGVKGDLLIDIGSGPTIYQLLSACESFKEIVVTDYSDQNLQELEKWLKKEPEAFDWSPVVTYVCDLEGNRVKGPEKEEKLRQAVKQVLKCDVTQSQPLGAVPLPPADCVLSTLCLDAACPDLPTYCRALRNLGSLLKPGGFLVIMDALKSSYYMIGEQKFSSLPLGREAVEAAVKEAGYTIEWFEVISQSYSSTMANNEGLFSLVARKLSRPL [NNMT]
Result block: 3.88
